Tested on: DU-145 prostate
Experiment: NCI-60 one-dose screen, 48 h
Conditions: 10 µM unless noted
This is part of a sample that, as a whole, favours compounds with a hit. Of some 83,000 tested, about 20% had one in any assay. The source made the active and inactive calls. The calls were made as follows: active = growth percent below 10; inactive = the rest.
Outcomes you can answer with include only these: active, inactive

Worked examples, 3 compounds total:
COCCCNc1nc(NC(=O)c2cc(OC)cc(OC)c2)cc(-c2cccnc2)n1; inactive
O=C1/C(=C/c2ccc(OCc3ccccc3)cc2)Oc2cc(OCCN3CCCCC3)ccc21; inactive
CCOC(=O)c1nn(C2CCCCO2)c2ccc(NC(=O)CN3CCOCC3)cc12 (stereo unspecified); inactive

query: // param item: CCCCCn1sc(=O)n(Cc2ccc(CNC(=O)OCc3ccc4cccc(O)c4n3)cc2)c1=O ; yields the recorded call
result: active

query: Recorded call for Brc1ccc2c(c1)CN(C1CCCCC1)CO2 ?
result: inactive

query: GET /call?item= COc1cc2c(c(OC)c1OC)-c1ccc(NNC(N)=S)c(=O)cc1[C@@H](NC(C)=O)CC2 returns the recorded outcome of this test.
result: active

query: Name the outcome recorded for Cc1cccc(C[C@H](NC(=O)Nc2ccc(Cl)cc2F)C(=O)N[C@@H]2C(=O)N3C[C@H](OC(=O)CCN(C)C)C[C@H]3C(=O)N3CCCC[C@H]3C(=O)N[C@@H](C)C(=O)N3C[C@H](C)C[C@H]3C(=O)O[C@H]2C)c1 in the assay.
result: inactive

query: Can you look up the reported call for O=[N+]([O-])c1cccc(/C=C/c2ccc3ccccc3n2)c1 for me?
result: inactive

query: Recorded test outcome, item C=C(C)[C@@H]1CC[C@]2(C)[C@H](CC=C3[C@@H]4[C@@H](C)[C@H](C)CC[C@]4(C(N)=O)CC[C@]32C)[C@@]1(C)CCC#N
result: active

query: Test call, this compound: CC1Cc2ccc(OCCN(C)C)cc2C1=O (stereo unspecified)
result: inactive

query: # lookup: test call for CCOC(=O)C(=Cc1ccccc1[N+](=O)[O-])C(=O)OCC
result: active
